# assayed.target: ZFP SBS#468 (synthetic)
# Sequence (chain, as listed by the source): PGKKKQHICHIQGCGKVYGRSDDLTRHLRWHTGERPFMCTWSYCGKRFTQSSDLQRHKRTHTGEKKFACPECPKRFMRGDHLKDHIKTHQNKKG
# assay.overview: EMSA
# assay.conditions: tags: MBP fusion

- binder: "CAGGCTGCGC (dsDNA) DNA 1: CAGGCTGCGC DNA 2: GCGCAGCCTG"
  measurement.unit: "nM"
  Kd: 42
